Target: T1, φW39 ΔN47 Ref (Bacteriophage phi W39)
T1 chain: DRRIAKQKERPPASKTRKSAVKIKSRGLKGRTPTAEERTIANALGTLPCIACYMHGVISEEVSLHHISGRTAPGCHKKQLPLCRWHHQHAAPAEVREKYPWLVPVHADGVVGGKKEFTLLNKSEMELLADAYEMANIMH
Experiment: FP; apparent Kd; 113±7; 15 mM Mg acetate, pH 8.5, 25 C
Conditions: tags: expressed from pET21A with NdeI start Met; label: 5'-6FAM
Endpoint: pKd
Just the number, please; pKd means minus log10 of the concentration in mol/L.

In one line, give reported pKd of the entry AJM25 71mer ssDNA (ssDNA) DNA: CAGAAGTAAGTTGGCCGCAGTGTTATCACTCATGGTTATGGCAGCACTGCATAATTCTCTTACTGTCATGC .
6.95
